molecular target: UniProt P50579; test: MetAP inhibitory activity, Met-Gly-Met-Met substrate, HPLC detection of Gly-Met-Met; assay type: biochemical, hs; settings: single concentration: inhibitor 25 µM, enzyme 50 nM, 60 minutes substrate incubation at 37 °C; read-out: hsMetAP-II % inhibition
Sequence (P50579 whole entry): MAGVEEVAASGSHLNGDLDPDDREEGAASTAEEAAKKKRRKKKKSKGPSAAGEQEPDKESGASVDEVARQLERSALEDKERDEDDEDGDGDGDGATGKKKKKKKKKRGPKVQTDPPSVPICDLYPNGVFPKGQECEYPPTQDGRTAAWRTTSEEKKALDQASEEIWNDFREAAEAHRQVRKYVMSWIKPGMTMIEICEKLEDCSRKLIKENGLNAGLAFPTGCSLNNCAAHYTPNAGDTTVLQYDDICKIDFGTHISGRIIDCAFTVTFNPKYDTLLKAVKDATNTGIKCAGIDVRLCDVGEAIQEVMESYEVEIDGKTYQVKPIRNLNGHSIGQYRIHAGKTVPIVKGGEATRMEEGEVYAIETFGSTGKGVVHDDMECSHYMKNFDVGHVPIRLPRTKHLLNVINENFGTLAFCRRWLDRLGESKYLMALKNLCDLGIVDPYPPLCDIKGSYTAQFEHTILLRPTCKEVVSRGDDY
Quick rule for you: inhibition at 25 µM at 80% or higher means rule met, lower means rule not met.

- molecule: "O=C1CCC2(CO2)c2c1nnn2Cc1ccccc1 (stereo not shown)"
  group label: "rule not met"
- molecule: "O=C1CCC2(CO2)c2c1ncn2Cc1ccccc1 (stereo not shown)"
  group label: "rule not met"
- molecule: "Cc1ccccc1Cn1nnc2c1C1(CCC2=O)CO1 (stereo not shown)"
  group label: "rule met"
- molecule: "O=C1CCC2(CO2)c2c1nnn2CC1CCCCC1 (stereo not shown)"
  group label: "rule not met"
- molecule: "O=C(O[C@@H]1CC[C@@]2(CO2)c2c1nnn2Cc1ccc2ccccc2c1)c1ccccc1"
  group label: "rule not met"
- molecule: "CC(C)c1ccc(Cn2nnc3c2C2(CCC3=O)CO2)cc1 (stereo not shown)"
  group label: "rule met"
- molecule: "O=C1CCC2(CO2)c2c1nnn2Cc1ccc(C(F)(F)F)cc1 (stereo not shown)"
  group label: "rule met"
